Experiment: Inhibition of almond beta-glucosidase
Set-up: species or system Prunus dulcis
Reported endpoint: pKi
Recall that pKi is obtained by taking minus log10 of the concentration measured in molar.

Record summary for O[C@@H]1[C@@H](O)[C@H](O)[C@]2(O)CC[C@H]1N2 : reported pKi = 5.40

----------
Experiment: Inhibition of Aspergillus niger alpha-galactosidase
Reported endpoint: pKi
In simple prose, pKi is minus the logarithm base ten of a concentration in moles per litre.

Per the record, O[C@@H]1[C@@H](O)[C@H](O)[C@]2(O)CC[C@H]1N2 [CALYSTEGINE B2] has pKi of 5.15
